Hello, the source for this data is the supplement of paper PMC9170038, in case you need it.

System: MS2 coat protein
Test: apparent KD of MS2 coat protein, switch ON state; designed switch direction (-1 OFF switch, 1 ON switch): 1; higher = weaker reporter binding
Conditions: FMN input: 0 or 200 uM; Eterna round: R93 (includes R88 designs)
sequences and their reported apparent KD of MS2 coat protein
A number alone suffices; assume nM.

Recorded apparent KD of MS2 coat protein, per entry:
# Monomer Sequence, apparent KD of MS2 coat protein (nM)
measured = [
    ("CGGUAAGAGAGAGAGGAUAUCCAAAGGAAAACAUGAGGAUCACCCAUGUAGAAGGUAGGAAAUUGGGAGAAGGCUCAAGAGAGAG [salish99-ss2-133]", 58.4),
    ("AAAAGACAUGAGGAUCACCCAUGUAGGCCAAAGCAAGGAUAUAGGCCACAGGGACGCGGACUAGAAGGUGCACGGC [Orerorge]", 25.2),
]

For the next question, use this sequence.
## Task Field: apparent KD of MS2 coat protein (MS2 coat protein). Entry: CGCAAACAUGAGGAUCACCCAUGUCAUUGUGAUCAAGGAUAUGGGUUCCGAAGUGGAACACCAGAAGGUGAGUAGU [Sozaer]
## Result 224
